Where do these numbers come from? They come from patent US7091311.

# assay system: soluble TPO-R (UniProt P40238 26-491)
# Sequence (P40238 26-491): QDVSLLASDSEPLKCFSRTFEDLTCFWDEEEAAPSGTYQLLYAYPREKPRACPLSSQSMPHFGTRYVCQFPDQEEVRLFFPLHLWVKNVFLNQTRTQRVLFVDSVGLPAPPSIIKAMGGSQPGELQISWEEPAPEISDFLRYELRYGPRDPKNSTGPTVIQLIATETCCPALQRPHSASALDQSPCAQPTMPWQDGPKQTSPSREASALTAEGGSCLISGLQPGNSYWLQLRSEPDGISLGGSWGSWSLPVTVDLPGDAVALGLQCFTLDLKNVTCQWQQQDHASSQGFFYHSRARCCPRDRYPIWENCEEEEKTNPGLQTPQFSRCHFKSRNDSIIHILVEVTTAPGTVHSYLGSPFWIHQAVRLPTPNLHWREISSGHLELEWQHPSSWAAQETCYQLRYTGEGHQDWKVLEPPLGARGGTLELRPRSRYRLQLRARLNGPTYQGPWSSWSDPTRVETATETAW
# method description: competition ELISA vs MBP-TPO156
Where no end group is shown, it is not given here.
IC50: recorded values

Worked examples follow.
Which IC50 reading was recorded for the binder CIEGPTLRQWLAARA (also: further groups not given here, also called [drawing CHEM-US-00062]) [[drawing CHEM-US-00030] (SEQ ID NO:185)(SEQ ID NO:185)] ?
≤ 500 nM

Which IC50 reading was recorded for the binder CADGPTLREWISF (also: further groups not given here, structure printed only as a drawing) [[drawing CHEM-US-00031] (SEQ ID NO:186)(SEQ ID NO:186)] ?
≤ 500 nM

Which IC50 reading was recorded for the binder MVGPTLRSGC (also: further groups not given here, structure printed only as a drawing) [[drawing CHEM-US-00033] (SEQ ID NO:188)(SEQ ID NO:188)] ?
~200000 nM

Next:
Which IC50 reading was recorded for the binder DGPTLREWISFC (also: further groups not given here, structure printed only as a drawing) [[drawing CHEM-US-00037] (SEQ ID NO:189)(SEQ ID NO:189)] ?
≤ 500 nM

Which IC50 reading was recorded for the binder SVQCGPTLRQWLAARNHLS (also: further groups not given here, structure printed only as a drawing) [[drawing CHEM-US-00032] (SEQ ID NO:187)(SEQ ID NO:187)] ?
≤ 500 nM
